// reported IC50 per item
Target: human α1H T-type channels (Homo sapiens)
Construct: expressed in transfected cells; host or cells: HEK 293
Sequence (O95180 whole entry): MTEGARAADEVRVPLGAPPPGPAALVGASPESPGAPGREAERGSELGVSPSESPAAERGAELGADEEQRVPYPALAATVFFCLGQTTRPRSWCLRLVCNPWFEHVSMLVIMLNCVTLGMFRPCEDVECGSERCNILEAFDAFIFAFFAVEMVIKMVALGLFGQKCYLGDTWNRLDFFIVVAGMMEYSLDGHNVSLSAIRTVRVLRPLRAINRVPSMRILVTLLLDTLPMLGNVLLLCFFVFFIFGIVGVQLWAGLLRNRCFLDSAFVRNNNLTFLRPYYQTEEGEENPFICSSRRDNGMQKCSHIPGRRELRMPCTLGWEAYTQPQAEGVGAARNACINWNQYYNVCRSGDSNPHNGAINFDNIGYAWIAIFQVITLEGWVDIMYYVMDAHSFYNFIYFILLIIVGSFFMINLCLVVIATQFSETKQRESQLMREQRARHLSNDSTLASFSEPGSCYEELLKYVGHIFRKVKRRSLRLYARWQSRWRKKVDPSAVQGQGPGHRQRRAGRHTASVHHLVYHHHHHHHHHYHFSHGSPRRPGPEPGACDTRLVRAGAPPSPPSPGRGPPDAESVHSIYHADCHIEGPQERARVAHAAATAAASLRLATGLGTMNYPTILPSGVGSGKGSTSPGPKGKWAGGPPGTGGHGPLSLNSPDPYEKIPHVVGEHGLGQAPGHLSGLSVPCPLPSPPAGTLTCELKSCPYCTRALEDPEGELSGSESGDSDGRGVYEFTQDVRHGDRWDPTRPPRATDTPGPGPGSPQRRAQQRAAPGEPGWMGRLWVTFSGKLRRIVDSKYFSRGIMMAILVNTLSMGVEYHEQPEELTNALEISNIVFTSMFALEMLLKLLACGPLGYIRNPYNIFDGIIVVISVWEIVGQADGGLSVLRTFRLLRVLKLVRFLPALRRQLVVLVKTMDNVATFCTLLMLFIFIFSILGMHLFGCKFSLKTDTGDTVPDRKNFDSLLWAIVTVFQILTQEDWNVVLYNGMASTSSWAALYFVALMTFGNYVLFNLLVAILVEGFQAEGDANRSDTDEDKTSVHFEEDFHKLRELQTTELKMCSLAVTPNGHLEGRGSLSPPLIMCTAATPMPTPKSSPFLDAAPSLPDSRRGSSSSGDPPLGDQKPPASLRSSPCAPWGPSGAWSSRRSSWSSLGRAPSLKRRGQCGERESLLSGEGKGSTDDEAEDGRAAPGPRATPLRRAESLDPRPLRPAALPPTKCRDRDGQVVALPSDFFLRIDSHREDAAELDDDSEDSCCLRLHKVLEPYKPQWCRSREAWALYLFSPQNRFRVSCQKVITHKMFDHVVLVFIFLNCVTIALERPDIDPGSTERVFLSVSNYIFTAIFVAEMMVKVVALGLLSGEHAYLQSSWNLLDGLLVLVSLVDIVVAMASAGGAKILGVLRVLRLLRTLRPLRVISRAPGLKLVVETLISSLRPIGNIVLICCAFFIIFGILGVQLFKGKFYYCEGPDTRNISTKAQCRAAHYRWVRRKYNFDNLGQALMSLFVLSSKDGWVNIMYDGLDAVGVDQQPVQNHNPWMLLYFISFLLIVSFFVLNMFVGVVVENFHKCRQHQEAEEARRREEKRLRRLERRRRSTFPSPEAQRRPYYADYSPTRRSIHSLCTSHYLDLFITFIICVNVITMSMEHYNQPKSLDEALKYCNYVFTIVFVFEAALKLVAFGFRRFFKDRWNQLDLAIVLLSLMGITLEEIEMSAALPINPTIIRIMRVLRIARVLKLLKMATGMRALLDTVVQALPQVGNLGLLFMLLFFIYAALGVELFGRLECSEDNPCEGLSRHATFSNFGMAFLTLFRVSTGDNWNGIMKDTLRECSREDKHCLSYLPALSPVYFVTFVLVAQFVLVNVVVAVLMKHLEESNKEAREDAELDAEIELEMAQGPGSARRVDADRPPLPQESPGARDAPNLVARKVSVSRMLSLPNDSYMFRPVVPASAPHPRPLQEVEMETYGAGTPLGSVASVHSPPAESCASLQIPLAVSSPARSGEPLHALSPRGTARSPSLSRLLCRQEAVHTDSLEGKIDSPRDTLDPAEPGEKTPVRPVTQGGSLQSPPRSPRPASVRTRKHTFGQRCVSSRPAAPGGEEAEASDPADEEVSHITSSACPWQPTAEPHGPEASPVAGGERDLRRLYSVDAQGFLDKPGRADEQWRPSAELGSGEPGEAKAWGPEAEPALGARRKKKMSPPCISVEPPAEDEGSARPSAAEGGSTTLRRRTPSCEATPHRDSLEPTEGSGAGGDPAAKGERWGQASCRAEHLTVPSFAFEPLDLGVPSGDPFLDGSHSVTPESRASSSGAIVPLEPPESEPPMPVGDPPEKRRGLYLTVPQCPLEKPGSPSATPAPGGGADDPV
Assay: T-type calcium channel block, whole cell patch clamp in HEK cells (α1H)
Format: cell-based
Conditions: HEK cells, patch clamp, mainly non-inactivated protocol; values above 10 μM shown as 10 μM; read-out: T-type Calcium Channel Block α1H IC50

CC(C)(C)OC(=O)NC(CN1CCC(CC(=O)NCCc2c[nH]c3ccc(F)cc23)CC1)C(C)(C)C (stereo not shown) [Compound 196]
> 10 µM
COc1ccc(C(=O)NCC2CCN(CCNS(=O)(=O)C3CC3)CC2)cc1OC [Compound 324]
> 10 µM
O=C(NCC1CCN(C(=O)[C@@H]2CCCCN2)CC1)c1cc(C(F)(F)F)cc(C(F)(F)F)c1 [Compound 88]
> 10 µM
O=C(/C=C/c1cc(F)cc(F)c1)NCC1CCN(CCNS(=O)(=O)C2CC2)CC1 [Compound 231]
> 10 µM
Cc1ccc(-c2csc(NC(=O)CC3CCN(CC(O)C(C)(C)C)CC3)n2)cc1 (stereo not shown) [Compound 172]
> 10 µM

Tell me IC50 reported for CC(C)(C)C(=O)NCCN1CCC(CNC(=O)c2cc(C(F)(F)F)ccn2)CC1 [Compound 310]
> 10 µM

Retrieve IC50 measured for O=C(NCC1CCN(C(=O)CN2CCCC(F)(F)C2)CC1)c1cc(C(F)(F)F)cc(C(F)(F)F)c1 [Compound 256] and print it.
> 10 µM
